Each record here notes measured Number of pine trees showing wilt symptoms only at growing points of a stem.
Test system: Bursaphelenchus xylophilus
Assay: Occurrence of pine wilt disease after trunk injection of induced resistance candidate materials, in vivo test in young red pine trees
Details: red pine tree (Pinus densiflora), trunk injection, 20 µg/mℓ, 30 days after inoculation
attribute.measured: Number of pine trees showing wilt symptoms only at growing points of a stem

- Cc1ccc(NC(=O)c2snnc2C)cc1Cl [TDL, Tiadinil]: 2
- NCCCC(=O)O [GABA, r-Aminobutyric acid]: 1
- CO/C=C(/C(=O)OC)c1ccccc1Oc1cc(Oc2ccccc2C#N)ncn1 [AZO, Azoxystrobin]: 1
- N#Cc1ccccc1NC(=O)c1snc(Cl)c1Cl [ITL, Isotianil]: 2
- CC/C=C\CC1C(=O)CCC1CC(=O)OC (stereo not shown) [MeJA, Methyl jasmonate]: 1
- CC(N)CC(=O)O (racemic) [BABA, DL-3-aminobutyric acid]: 2
- O=C(O)CCCCCCCC(=O)O [AZA, Azelaic acid]: 1
- CSC(=O)c1cccc2nnsc12 [ASM, acibenzolar-S-methyl]: 1
- CC(O)C(C)O (stereo not shown) [2,3-BDO, 2,3-Butanediol]: 1
- OCC1=C[C@@H](N[C@H]2C[C@H](CO)[C@@H](O[C@H]3O[C@@H](CO)[C@H](O)[C@@H](O)[C@@H]3O)[C@H](O)[C@H]2O)[C@H](O)[C@@H](O)[C@@H]1O [VMA, Validamycin A]: 1

###

Test system: Bursaphelenchus xylophilus
Assay: Occurrence of pine wilt disease after trunk injection of induced resistance candidate materials, in vivo test in young red pine trees
Details: red pine tree (Pinus densiflora), trunk injection, 200 µg/mℓ, 30 days after inoculation
Number of pine trees showing wilt symptoms only at growing points of a stem by entry:
attribute.measured: Number of pine trees showing wilt symptoms only at growing points of a stem

• CC/C=C\CC1C(=O)CCC1CC(=O)OC (centres unmarked) [MeJA, Methyl jasmonate] = 2
• N#Cc1ccccc1NC(=O)c1snc(Cl)c1Cl = 1
• Cc1ccc(NC(=O)c2snnc2C)cc1Cl = 1
• CO/C=C(/C(=O)OC)c1ccccc1Oc1cc(Oc2ccccc2C#N)ncn1 = 2
• CC(O)C(C)O (centres unmarked) = 1

###

System: PR_10 family
Test: qRT-PCR expression of induced resistance gene in pine tree callus
Assay type: cell-based
Conditions: 200 µg/mℓ, 24 hours
Known Expression of induced resistance gene, PR_10 family of a selection of compounds
attribute.measured: Expression of induced resistance gene, PR_10 family

• OCC1=C[C@@H](N[C@H]2C[C@H](CO)[C@@H](O[C@H]3O[C@@H](CO)[C@H](O)[C@@H](O)[C@@H]3O)[C@H](O)[C@H]2O)[C@H](O)[C@@H](O)[C@@H]1O = 1.56
• CC(O)C(C)O (stereo not drawn) = 0.86
• Cc1ccc(NC(=O)c2snnc2C)cc1Cl = 1.19
• CC(N)CC(=O)O (racemic) = 1.23
• C=CCOC1=NS(=O)(=O)c2ccccc21 = 2.08
• O=C(O)CCCCCCCC(=O)O = 1.16
• CC(C)[C@@H](C)/C=C/[C@@H](C)[C@H]1CC[C@H]2C3=CC=C4C[C@@H](O)CC[C@]4(C)[C@H]3CC[C@]12C = 1.21
• CO/C=C(/C(=O)OC)c1ccccc1Oc1cc(Oc2ccccc2C#N)ncn1 = 1.4
• CC/C=C\CC1C(=O)CCC1CC(=O)OC (stereo not drawn) [MeJA, Methyl jasmonate] = 1.34
• NCCCC(=O)O = 1.57
• CSC(=O)c1cccc2nnsc12 = 1.71
• N#Cc1ccccc1NC(=O)c1snc(Cl)c1Cl = 1

###

Test system: PR_5 family
Assay: qRT-PCR expression of induced resistance gene in pine tree callus
Assay type: cell-based
Conditions: 200 µg/mℓ, 24 hours
The reader will find reported Expression of induced resistance gene, PR_5 family values listed item by item below.
attribute.measured: Expression of induced resistance gene, PR_5 family

- CC(N)CC(=O)O (racemic): 0.92
- C=CCOC1=NS(=O)(=O)c2ccccc21: 1.99
- CC/C=C\CC1C(=O)CCC1CC(=O)OC (stereo not shown) [MeJA, Methyl jasmonate]: 0.95
- Cc1ccc(NC(=O)c2snnc2C)cc1Cl: 1.33

###

Test system: PR_1b family
Experiment: qRT-PCR expression of induced resistance gene in pine tree callus
Assay type: cell-based
Details: 200 µg/mℓ, 24 hours
Method: For in vitro analysis of induced resistance, the expression of PR genes and other plant defense-related genes was determined, which are evolved in various defense mechanisms including induced resistance. […] After the treatment with 200 µg / mℓ of candidates of the selected induced resistance material, expression of the induced resistance-related gene in pine callus was determined by qRT-PCR using the primer pairs of defense resistance-related genes in Table 4. […]
attribute.measured: Expression of induced resistance gene, PR_1b family

• NCCCC(=O)O [GABA, r-Aminobutyric acid] = 1.78
• Cc1ccc(NC(=O)c2snnc2C)cc1Cl [TDL, Tiadinil] = 1.05
• CC(O)C(C)O (stereo not drawn) [2,3-BDO, 2,3-Butanediol] = 4.36

###

Test system: PR_1b family
Assay: qRT-PCR expression of induced resistance gene in pine tree callus
Type: cell-based
Conditions: 200 µg/mℓ, 24 hours
attribute.measured: Expression of induced resistance gene, PR_1b family

- CSC(=O)c1cccc2nnsc12: 2
- C=CCOC1=NS(=O)(=O)c2ccccc21: 0.26
- OCC1=C[C@@H](N[C@H]2C[C@H](CO)[C@@H](O[C@H]3O[C@@H](CO)[C@H](O)[C@@H](O)[C@@H]3O)[C@H](O)[C@H]2O)[C@H](O)[C@@H](O)[C@@H]1O: 0.73
- O=C(O)CCCCCCCC(=O)O: 1.15
- CO/C=C(/C(=O)OC)c1ccccc1Oc1cc(Oc2ccccc2C#N)ncn1: 1.66
- CC(N)CC(=O)O (racemic): 0.48
- N#Cc1ccccc1NC(=O)c1snc(Cl)c1Cl: 1.77
- CC/C=C\CC1C(=O)CCC1CC(=O)OC (stereo not drawn) [MeJA, Methyl jasmonate]: 0.5
- CC(C)[C@@H](C)/C=C/[C@@H](C)[C@H]1CC[C@H]2C3=CC=C4C[C@@H](O)CC[C@]4(C)[C@H]3CC[C@]12C: 1.14

###

Tested on: Antipeptide
Experiment: qRT-PCR expression of induced resistance gene in pine tree callus
Assay type: cell-based
Conditions: 200 µg/mℓ, 24 hours
attribute.measured: Expression of induced resistance gene, Antipeptide

• CC(O)C(C)O (stereo not shown) = 1.31
• O=C(O)CCCCCCCC(=O)O = 1.43
• CO/C=C(/C(=O)OC)c1ccccc1Oc1cc(Oc2ccccc2C#N)ncn1 = 0.69
• CSC(=O)c1cccc2nnsc12 = 1.83
• OCC1=C[C@@H](N[C@H]2C[C@H](CO)[C@@H](O[C@H]3O[C@@H](CO)[C@H](O)[C@@H](O)[C@@H]3O)[C@H](O)[C@H]2O)[C@H](O)[C@@H](O)[C@@H]1O = 2.36
• Cc1ccc(NC(=O)c2snnc2C)cc1Cl = 0.64
• CC/C=C\CC1C(=O)CCC1CC(=O)OC (stereo not shown) [MeJA, Methyl jasmonate] = 0.43

###

Parameter Expression of induced resistance gene, PR_5 family: see the listing below.
Tested on: PR_5 family
Test: qRT-PCR expression of induced resistance gene in pine tree callus
Type: cell-based
Conditions: 200 µg/mℓ, 24 hours
attribute.measured: Expression of induced resistance gene, PR_5 family

• CSC(=O)c1cccc2nnsc12 [ASM, acibenzolar-S-methyl] = 2.93
• CC(O)C(C)O (centres unmarked) [2,3-BDO, 2,3-Butanediol] = 1.13
• O=C(O)CCCCCCCC(=O)O [AZA, Azelaic acid] = 1.45
• CC(C)[C@@H](C)/C=C/[C@@H](C)[C@H]1CC[C@H]2C3=CC=C4C[C@@H](O)CC[C@]4(C)[C@H]3CC[C@]12C [ER, Ergosterol] = 1.05
• CO/C=C(/C(=O)OC)c1ccccc1Oc1cc(Oc2ccccc2C#N)ncn1 [AZO, Azoxystrobin] = 1.52
• NCCCC(=O)O [GABA, r-Aminobutyric acid] = 3.78
• N#Cc1ccccc1NC(=O)c1snc(Cl)c1Cl [ITL, Isotianil] = 0.95
• OCC1=C[C@@H](N[C@H]2C[C@H](CO)[C@@H](O[C@H]3O[C@@H](CO)[C@H](O)[C@@H](O)[C@@H]3O)[C@H](O)[C@H]2O)[C@H](O)[C@@H](O)[C@@H]1O [VMA, Validamycin A] = 4.66

###

Items are presented alongside their recorded Expression of induced resistance gene, Antipeptide.
System: Antipeptide
Test: qRT-PCR expression of induced resistance gene in pine tree callus
Type: cell-based
Conditions: 200 µg/mℓ, 24 hours
attribute.measured: Expression of induced resistance gene, Antipeptide

- C=CCOC1=NS(=O)(=O)c2ccccc21: 1.11
- CC(C)[C@@H](C)/C=C/[C@@H](C)[C@H]1CC[C@H]2C3=CC=C4C[C@@H](O)CC[C@]4(C)[C@H]3CC[C@]12C: 2.11
- CC(N)CC(=O)O (racemic): 0.4
- N#Cc1ccccc1NC(=O)c1snc(Cl)c1Cl: 0.75
- NCCCC(=O)O: 1.13
